Test Target: canine FcRn complex (FcRn-alpha subunit and beta-microglobulin), His-tagged, biotin labeled (canine)
Method Summary: SPR (Biacore), biotin-FcRn captured on SA surface, IgG flowed over, pH 6, 15 C
Measured Kd accompanies every entry in the list below.
Form entry: value (nM) — number only.

[
  {
    "Binder": "canine IgGB (65) mAb with mutation D312Y (antibody, part only; not given: variable domains of unnamed mAb, not shown: another chain or arm of the molecule) constant: ASTTAPSVFPLAPSCGSTSGSTVALACLVSGYFPEPVTVSWNSGSLTSGVHTFPSVLQSSGLYSLSSMVTVPSSRWPSETFTCNVAHPASKTKVDKPVPKRENGRVPRPPDCPKCPAPEMLGGPSVFIFPPKPKDTLLIARTPEVTCVVVDLDPEDPEVQISWFVDGKQMQTAKTQPREEQFNGTYRVVSVLPIGHQYWLKGKQFTCKVNNKALPSPIERTISKARGQAHQPSVYVLPPSREELSKNTVSLTCLIKDFFPPDIDVEWQSNGQQEPESKYRTTPPQLDEDGSYFLYSKLSVDKSRWQRGDTFICAVMHEALHNHYTQESLSHSPGK",
    "Unit Abbrev": "nM",
    "Kd": 25.1
  }
]

Please examine the following record next.
Quick one: give measured Kd for canine IgGB (65) mAb with mutation D312H (antibody, part only; not given: Variable domains, not shown: another chain or arm of the molecule) constant: ASTTAPSVFPLAPSCGSTSGSTVALACLVSGYFPEPVTVSWNSGSLTSGVHTFPSVLQSSGLYSLSSMVTVPSSRWPSETFTCNVAHPASKTKVDKPVPKRENGRVPRPPDCPKCPAPEMLGGPSVFIFPPKPKDTLLIARTPEVTCVVVDLDPEDPEVQISWFVDGKQMQTAKTQPREEQFNGTYRVVSVLPIGHQHWLKGKQFTCKVNNKALPSPIERTISKARGQAHQPSVYVLPPSREELSKNTVSLTCLIKDFFPPDIDVEWQSNGQQEPESKYRTTPPQLDEDGSYFLYSKLSVDKSRWQRGDTFICAVMHEALHNHYTQESLSHSPGK
9.72
